Below, each of the molecules is paired with its reported Plant response rating, Foxtail, Giant value.
- Tested on: foxtail, giant (giant foxtail, Setaria faberii)
- testMethodNotes: Test A preemergence, foxtail, giant
- Type: in vivo
- details: 500 g ai/ha, 0 to 100 scale

molecule	testTarget	Plant response rating, Foxtail, Giant
O=C1NCC(CCc2ccccc2)C1C(=O)Nc1ccccc1F (centres unmarked)	foxtail, giant (giant foxtail, Setaria faberii)	0
O=C1NCC(/C=C/c2ccccc2)C1C(=O)Nc1cccc(F)c1F (centres unmarked)	foxtail, giant (giant foxtail, Setaria faberii)	90
O=C1NCC(/C=C/c2ccccc2F)C1C(=O)Nc1ccccc1F (centres unmarked)	foxtail, giant (giant foxtail, Setaria faberii)	80
O=C1NCC(C#Cc2cccc(Cl)c2)C1C(=O)Nc1ccccc1F (centres unmarked) [Compound 29]	foxtail, giant (giant foxtail, Setaria faberii)	60
O=C1NCC(C#Cc2ccc(F)cc2)C1C(=O)Nc1ccc(F)c(F)c1F (centres unmarked)	foxtail, giant (giant foxtail, Setaria faberii)	90
O=C1NCC(/C=C/c2cccc(F)c2)C1C(=O)Nc1cccc(F)c1F (centres unmarked)	foxtail, giant (giant foxtail, Setaria faberii)	90
O=C1NCC(Cc2cccc(F)c2F)C1C(=O)Nc1cccc(F)c1F (centres unmarked)	foxtail, giant (giant foxtail, Setaria faberii)	50
O=C1NCC(Cc2ccc(C(F)(F)F)cc2)C1C(=O)Nc1cccc(F)c1F (centres unmarked)	foxtail, giant (giant foxtail, Setaria faberii)	30
